# System: UO-31
# Method: NCI tumour cell line growth inhibition, 48 h
The source made the active and inactive calls. No stated cut-off is given here; in the data, active = GI50 up to about 1.1 µM and inactive = higher.
Entry note: the call must match one of active, inactive

Solved cases (10 shown):
1. C[C@@H]1O[C@]2(O)[C@@H]3CCCN3S(=O)(=O)CCN2C1=O : inactive
2. O=C1C(=O)N(c2ccc(Cl)cc2Cl)C(=O)C(=O)C1c1nc2ccccc2s1 : inactive
3. COC1CC(=O)C2C(=O)N(c3ccccc3)C(=O)C23C(C(=O)c2ccccc2)=C(C)NC13O (centres undefined) : inactive
4. O=C1/C(=C/c2ccco2)NC(=S)N1CN1CCOCC1 : inactive
5. CC(N)CC(=O)O (centres undefined) : inactive
6. c1ccc(-c2ccc(-c3cc4ccccc4[nH]3)cc2)cc1 : inactive
7. O=C1c2cccnc2-c2nccc3ccnc1c23 : active
8. N#Cc1ccc(-c2nc3c(N)nc(-c4ccccc4)nc3o2)cc1 : inactive
9. CC(C)CCCC(C)[C@H]1CCC2[C@@H]3CCC4Nc5c(cnn5-c5ccccc5)C[C@]4(C)C3CC[C@@]21C (some centres undefined) : inactive
10. Nc1c(C(=O)c2ccc(Cl)cc2)[nH]c(Nc2ccc(Cl)cc2)c1C(=S)Nc1ccccc1 : inactive

Outcome? "Cc1ccc(-c2nnc3s/c(=C\c4ccc(N(C)C)cc4)c(=O)n23)cc1" inactive

// repeat for CN(C)CC(/C(Cc1ccccc1)=N\NC(=O)C[n+]1ccccc1)c1ccccc1 (centres undefined) and report inactive

Next record, please: "CN(CCCNC(=O)c1n[nH]c2c1ccc1ccccc12)CCCNC(=O)c1n[nH]c2c1ccc1ccccc12" inactive

Lookup "N#Cc1c(C(N)=O)ncn1Cc1ccccc1" inactive
